Where do these numbers come from? They come from patent US8758743B2.

assay: Bioabsorbability Test 2 of coenzyme Q10 (Test Example 1-4); assay type: in vivo; details: male, SD, rat, plasma, po, 5 mg/kg, satiation, read-out: AUC1-24
recorded metric: AUC (ng·h/mL)

INSERT INTO measurements (compound, recorded_metric, readout_number) VALUES
  ('COC1=C(OC)C(=O)C(C/C=C(\C)CC/C=C(\C)CC/C=C(\C)CC/C=C(\C)CC/C=C(\C)CC/C=C(\C)CC/C=C(\C)CC/C=C(\C)CC/C=C(\C)CCC=C(C)C)=C(C)C1=O [Coenzyme Q10 Powder, coenzyme Q10]', 'AUC', 4780);

###

assay: Bioabsorbability Test 2 of coenzyme Q10 (Test Example 1-4); assay type: in vivo; conditions: male, SD, rat, plasma, po, 5 mg/kg, satiation, 1 hour after administration
recorded metric: concentration at 1 h (ng/mL)

INSERT INTO assay_data (molecule, unit_tag, readout_number) VALUES
  ('COC1=C(OC)C(=O)C(C/C=C(\C)CC/C=C(\C)CC/C=C(\C)CC/C=C(\C)CC/C=C(\C)CC/C=C(\C)CC/C=C(\C)CC/C=C(\C)CC/C=C(\C)CCC=C(C)C)=C(C)C1=O [Coenzyme Q10 Powder, coenzyme Q10]', 'ng/mL', 120);

###

test: Bioabsorbability Test 2 of coenzyme Q10 (Test Example 1-4); assay type: in vivo; settings: male, SD, rat, plasma, po, 5 mg/kg, fasting, 4 hours
recorded metric: concentration at 4 h (ng/mL)

INSERT INTO results (smiles_representation, readout_number) VALUES
  ('COC1=C(OC)C(=O)C(C/C=C(\C)CC/C=C(\C)CC/C=C(\C)CC/C=C(\C)CC/C=C(\C)CC/C=C(\C)CC/C=C(\C)CC/C=C(\C)CC/C=C(\C)CCC=C(C)C)=C(C)C1=O', 30);

###

assay: Bioabsorbability Test 2 of coenzyme Q10 (Test Example 1-4); format: in vivo; conditions: male, SD, rat, plasma, po, 5 mg/kg, fasting, read-out: AUC1-24
recorded metric: AUC (ng·h/mL)

INSERT INTO assay_data (smiles_representation, recorded_metric, readout_number) VALUES
  ('COC1=C(OC)C(=O)C(C/C=C(\C)CC/C=C(\C)CC/C=C(\C)CC/C=C(\C)CC/C=C(\C)CC/C=C(\C)CC/C=C(\C)CC/C=C(\C)CC/C=C(\C)CCC=C(C)C)=C(C)C1=O', 'AUC', 780);

###

assay: Bioabsorbability Test 2 of coenzyme Q10 (Test Example 1-4); format: in vivo; details: male, SD, rat, plasma, po, 5 mg/kg, fasting, 8 hours
recorded metric: concentration at 8 h

INSERT INTO measurements (smiles_representation, result) VALUES
  ('COC1=C(OC)C(=O)C(C/C=C(\C)CC/C=C(\C)CC/C=C(\C)CC/C=C(\C)CC/C=C(\C)CC/C=C(\C)CC/C=C(\C)CC/C=C(\C)CC/C=C(\C)CCC=C(C)C)=C(C)C1=O', '30 ng/mL');

###

assay: Bioabsorbability Test 2 of coenzyme Q10 (Test Example 1-4); assay type: in vivo; conditions: male, SD, rat, plasma, po, 5 mg/kg, fasting, 2 hours
recorded metric: concentration at 2 h (ng/mL)

INSERT INTO assay_data (smiles_representation, unit_tag, readout_number) VALUES
  ('COC1=C(OC)C(=O)C(C/C=C(\C)CC/C=C(\C)CC/C=C(\C)CC/C=C(\C)CC/C=C(\C)CC/C=C(\C)CC/C=C(\C)CC/C=C(\C)CC/C=C(\C)CCC=C(C)C)=C(C)C1=O', 'ng/mL', 30);
